- System: SW-620 colon
- assayProtocol: NCI tumour cell line growth inhibition, 48 h
So I've got a bunch of molecules here, and I need their TGI values.

[[record]]
molecule = "O=C1OCC2=C1C(c1cccc(Cl)c1)c1cc3c(cc1N2CCO)OCCO3 (stereo unspecified)"
measurement = "> 100 µM"


The following molecules each have a reported value; give each one's TGI.
1. COc1ccc2c(c1)C(=O)c1ccc(OC)cc1C2=S
2. COc1ccc(/C=C/c2cc(OC)c(OC)c(OC)c2)cc1
3. Cc1cc(NC(=O)NC(=O)c2ccccc2NC(=O)C(C)N)ccc1Oc1ncc(Br)cn1 (stereo unspecified)
4. C[C@@H]1[C@H](C)N1CC(O)Cn1ccnc1[N+](=O)[O-] (stereo partly specified)
5. NC(=O)NNc1nc(-c2ccccc2)cs1
6. N#CC1(C#N)NC(c2cccs2)C(C#N)(C#N)NC1c1cccs1 (stereo unspecified)
7. CSCCC(N)C(=O)NCCNc1ccc(NCCNC(=O)C(N)CCSC)c2c1C(=O)c1ccccc1C2=O (stereo unspecified)
8. O=C(/C=C/Sc1cc(C(F)(F)F)cc(C(F)(F)F)c1)c1ccc(Cl)cc1

1. > 100 µM
2. > 100 µM
3. 44.4 µM
4. > 100 µM
5. > 100 µM
6. > 100 µM
7. 3.83 µM
8. 41.3 µM

For each entry beneath this line, provide reported TGI.
1. CCOP(=O)(/C=C\n1cc(C)c(=O)[nH]c1=O)OCC
2. Cc1cccc(/C=N/NC(=S)N2CCCC2)n1

> 100 µM
> 100 µM
